pIC50: −log10 of the molar value.
pIC50 data for EGFR WT (Homo sapiens, UniProt P00533) follow.
readout_label: pIC50

Examples with answers:
CCN1Cc2c(c(OC(C)C)nn2CCO)/C=C/c2n[nH]c3cnc(cc23)-c2cnn(C)c2O[C@@H](C)C1 9.74
CCOc1nn([C@@H](C)CO)c2c1/C=C/c1n[nH]c3c(C)nc(cc13)-c1c(C)nn(C)c1O[C@@H](C)CN(C)C2 9.42
CCOc1nn(CCO)c2c1/C=C/c1n[nH]c3cnc(cc13)-c1c(C)nn(C)c1OC[C@H](C)N(CC)C2 9.35
Cc1nn(CCO)c2c1/C=C/c1n[nH]c3cnc(cc13)-c1c(C)nn(C)c1O[C@H](C)CN(C(C)C)C2 9.15
CCOc1nn(CCO)c2c1/C=C/c1n[nH]c3cnc(cc13)-c1cnn(C)c1OC[C@H](C)N(CC)C2 8.94

a. CCOc1nn(CCO)c2c1/C=C/c1n[nH]c3cnc(cc13)-c1c(C)nn(C)c1O[C@@H](C)CN(CC)C2
b. CCOc1nn([C@@H](C)CO)c2c1/C=C/c1n[nH]c3cnc(cc13)-c1c(C)nn(C)c1O[C@@H](C)CN(C)C2
Which one would you say has the larger pIC50 value: a , or b ? State the label of the item chosen.
a

###

tested_on: EGFR (D746-750/C797S) (Homo sapiens, UniProt P00533, C797S/DEL746-750)
Sequence (P00533 with tags, fused parts or gaps DEL746-750/C797S): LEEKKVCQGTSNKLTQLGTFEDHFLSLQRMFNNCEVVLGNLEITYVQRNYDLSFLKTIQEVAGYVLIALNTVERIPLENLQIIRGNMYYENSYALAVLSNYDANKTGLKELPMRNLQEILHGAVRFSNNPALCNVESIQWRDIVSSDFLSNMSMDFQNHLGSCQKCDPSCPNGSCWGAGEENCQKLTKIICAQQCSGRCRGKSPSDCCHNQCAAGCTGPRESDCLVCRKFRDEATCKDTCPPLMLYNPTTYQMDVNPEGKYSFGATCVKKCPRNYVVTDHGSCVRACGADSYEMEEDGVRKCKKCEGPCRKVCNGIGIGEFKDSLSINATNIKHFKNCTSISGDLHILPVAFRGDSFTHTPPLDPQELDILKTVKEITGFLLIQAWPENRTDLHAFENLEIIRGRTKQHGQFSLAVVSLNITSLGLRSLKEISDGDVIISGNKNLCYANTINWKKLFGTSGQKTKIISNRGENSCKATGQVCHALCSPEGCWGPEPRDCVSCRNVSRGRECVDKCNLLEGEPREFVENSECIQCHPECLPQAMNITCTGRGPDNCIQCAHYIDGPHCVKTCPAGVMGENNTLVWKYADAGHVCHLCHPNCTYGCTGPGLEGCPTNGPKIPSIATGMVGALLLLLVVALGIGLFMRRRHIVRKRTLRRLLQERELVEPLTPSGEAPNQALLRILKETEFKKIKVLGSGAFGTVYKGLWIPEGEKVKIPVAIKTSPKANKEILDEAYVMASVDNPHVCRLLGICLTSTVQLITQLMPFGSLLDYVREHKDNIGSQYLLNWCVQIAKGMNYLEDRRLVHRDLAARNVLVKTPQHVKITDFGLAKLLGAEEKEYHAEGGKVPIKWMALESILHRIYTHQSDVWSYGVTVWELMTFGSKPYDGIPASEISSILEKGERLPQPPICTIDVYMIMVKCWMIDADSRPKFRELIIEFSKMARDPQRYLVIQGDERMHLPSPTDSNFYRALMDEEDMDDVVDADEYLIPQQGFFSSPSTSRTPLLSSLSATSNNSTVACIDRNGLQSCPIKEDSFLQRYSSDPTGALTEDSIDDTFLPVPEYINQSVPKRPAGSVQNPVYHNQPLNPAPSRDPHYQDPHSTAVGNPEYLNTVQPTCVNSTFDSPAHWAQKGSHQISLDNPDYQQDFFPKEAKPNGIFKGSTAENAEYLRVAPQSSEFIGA
assay_comment: HotSpot radiometric kinase assay, inhibition of EGFR 746-750/C797S mutant
condition: 33P ATP, room temperature, 120 m
readout_label: IC50 (nM)

compound	IC50 / nM
CCOc1nn([C@@H](C)CO)c2c1/C=C/c1n[nH]c3cnc(cc13)-c1cnn(C)c1O[C@@H](C)CN(C)C2	0.6
CCOc1nn([C@@H](C)CO)c2c1/C=C/c1n[nH]c3cnc(cc13)-c1c(C)nn(C)c1OC[C@H](C)N(CC)C2	1.02
Cc1nn(C)c2c1-c1cc3c(n[nH]c3cn1)/C=C/c1c(OCC#N)nn(CCO)c1CN1CCC[C@@H]1C(C)O2 (single isomer, unassigned)	0.68
CCOc1nn(CCO)c2c1/C=C/c1n[nH]c3c(C)nc(cc13)-c1cnn(C)c1O[C@@H](C)CN(C)C2	0.65
CCOc1nn(CCO)c2c1/C=C/c1n[nH]c3cnc(cc13)-c1c(C)nn(C)c1O[C@@H](C)[C@H]1CCCN1C2	1.09

a. CC(C)Oc1nn(CCO)c2c1/C=C/c1n[nH]c3cnc(cc13)-c1cnn(C)c1O[C@@H](C)CN(C)C2
b. CCc1nn(CCO)c2c1/C=C/c1n[nH]c3cnc(cc13)-c1c(C)nn(C)c1O[C@@H](C)CN(C)C2
Problem: Given the entries a and b , determine which has the lower reported IC50. # respond with the chosen item's label
a
(a: 0.45 nM, b: 1.72 nM)

a. CCOc1nn(CCO)c2c1/C=C/c1n[nH]c3c(C)nc(cc13)-c1cnn(C)c1O[C@H](C)CN(CC)C2
b. Cc1nn([C@@H](C)CO)c2c1/C=C/c1n[nH]c3c(C)nc(cc13)-c1c(C)nn(C)c1O[C@@H](C)CN(C)C2
c. CCOc1nn(CCO)c2c1/C=C/c1n[nH]c3cnc(cc13)-c1cnn(C)c1O[C@@H](C)CN(C(C)C)C2
Ascending by IC50, please. To answer, write out the labels according to the requested order.
c, a, b
(c: 0.31 nM, a: 0.79 nM, b: 1.38 nM)
